This listing pairs compounds with measured melting point.

[
  {
    "compound": "COc1c(Cc2c[nH]cn2)cccc1C(N)=O",
    "readout.kind": "melting point",
    "recorded.result": "160 °C"
  },
  {
    "compound": "O=C1CCCN1CCc1c2ccccc2n2c1[nH]c(=O)c1ccccc12",
    "readout.kind": "melting point",
    "recorded.result": "154 to 155 °C"
  },
  {
    "compound": "CCOC(=O)c1ccc(NC(=O)CCc2ccc(Cl)cc2)cc1",
    "readout.kind": "melting point",
    "recorded.result": "163 to 165 °C"
  },
  {
    "compound": "CC(C)[C@](C)(O)C(=O)O",
    "readout.kind": "melting point",
    "recorded.result": "47 to 49 °C"
  },
  {
    "compound": "COC(=O)C=Cc1ccc(OCCN(C)c2ccccn2)cc1",
    "readout.kind": "melting point",
    "recorded.result": "93 to 95 °C"
  },
  {
    "compound": "O=C1N(N2CCCCC2)c2ccccc2C1(Cc1ccncc1)c1ccccc1 (stereo not given)",
    "readout.kind": "melting point",
    "recorded.result": "128 to 131 °C"
  },
  {
    "compound": "COc1cc(C(=O)NC2CCN(C)CC2)c(F)cc1Nc1ncc2c(n1)N(C1CCCC1)CC(F)(F)C(=O)N2C",
    "readout.kind": "melting point",
    "recorded.result": "194 to 196 °C"
  },
  {
    "compound": "Cn1cncc1C(O)c1ccc2nc(Cl)nc(-c3cccc(Cl)c3)c2c1 (stereo not given)",
    "readout.kind": "melting point",
    "recorded.result": "140 °C"
  }
]

**Q:** Requested field: melting point. Item: `C[C@H](Cc1ccc(-c2cc(F)c(C#N)c(F)c2)cc1)c1ccccc1`
**A:** 60.7 to 62.2 °C

**Q:** Request: `CC1CCN(c2ccc([N+](=O)[O-])cc2C(=O)c2ccccc2Cl)CC1`
**A:** 84 °C

###

readout.kind: melting point

[
  {
    "compound": "O=CCCc1cc(F)c2ncc(C(=O)NCc3ccc(Cl)cc3)c(O)c2c1",
    "recorded.result": "242 to 244 °C"
  },
  {
    "compound": "COc1ccc(CNc2cc(Cn3c(C(=O)c4cc(C)cc(C)c4)c(C(C)C)c(=O)[nH]c3=O)cc(F)n2)cc1",
    "recorded.result": "120 to 122 °C"
  }
]

**Q:** Recorded melting point of CC(C)(C)c1ccc(OCC(O)CN2CCC3(CC2)CSC2=C(O3)c3cc(Cl)ccc3C(=O)C2=O)cc1 (centres undefined) , please.
**A:** 94 to 97 °C

**Q:** And the next one, `CC1(C)CCc2ccc(Oc3ccc(N)cn3)cc2O1` ?
**A:** 93 to 94 °C

**Q:** Also need CCOC(=O)C(Cc1ccc(Cl)c(OC(F)(F)C(F)F)c1)C(=O)c1ccc(F)cc1 (centres undefined) , thanks.
**A:** 73 to 74 °C

**Q:** Now consider `COn1c(C(C)C)nc2c(N)nc3ccccc3c21` and answer again.
**A:** 217 to 219 °C

**Q:** Try `CCOc1ccc2c(c1)n(C1CCCCC1)c(=O)n2S(=O)(=O)c1ccc(NC(=O)N(C)C(C)(C)C)cc1OC` next.
**A:** 208 °C

**Q:** And `Cc1cc(-n2c(Cl)cnc2C)cc2ccc(=O)[nH]c12` ?
**A:** 258 to 261 °C

**Q:** Similarly, `CC(=O)Nc1ccc(S(=O)(=O)Nc2nnc(C)s2)cc1` ?
**A:** 239 to 240 °C
